The reported measurements were obtained from patent US20250313625A1.

The entries below are paired with their reported EC50.
- TESTED_ON: T1, human LAG3, full length, stably expressed on cells (human, UniProt P18627 23-525)
- T1 construct: whole, on cells; also called CHOK1-human LAG3
- T1 sequence (looked up): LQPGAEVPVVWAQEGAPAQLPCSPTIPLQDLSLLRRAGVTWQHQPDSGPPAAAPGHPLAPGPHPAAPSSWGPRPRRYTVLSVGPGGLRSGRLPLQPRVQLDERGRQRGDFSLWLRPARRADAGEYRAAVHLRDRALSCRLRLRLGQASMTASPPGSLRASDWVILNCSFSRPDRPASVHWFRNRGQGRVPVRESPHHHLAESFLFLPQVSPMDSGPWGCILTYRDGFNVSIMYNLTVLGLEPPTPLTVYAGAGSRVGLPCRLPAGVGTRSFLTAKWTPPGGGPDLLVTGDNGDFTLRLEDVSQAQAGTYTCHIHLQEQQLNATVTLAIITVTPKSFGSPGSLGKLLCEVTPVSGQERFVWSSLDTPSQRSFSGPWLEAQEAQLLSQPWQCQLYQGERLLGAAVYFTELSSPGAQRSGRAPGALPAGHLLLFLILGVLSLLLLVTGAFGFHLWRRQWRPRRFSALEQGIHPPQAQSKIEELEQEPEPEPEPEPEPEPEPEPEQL
- ASSAY_PROTOCOL: FACS on 293F cells stably expressing human LAG3
READOUT_NAME: EC50 (nM)

[[record]]
binder = "039c (antibody, human IgG4, V domains shown, human IgG4 S228P / kappa chimeric antibody; also called chimeric antibody 039; not shown: human kappa light chain constant region (pcDNA3.4-hIgGk vector)) VH: EFQLQQSGPELVKPGASVKISCKASGYSFTDYNLNWVRQSNGKSLEWIGLVDPIYGTIRYNQNFKDKATLTVDQSSSTAYMQLNSLTSEDSAVYYCASIMTAVRYFDHWGQGTTLTVSS VL: DVLMTQTPLFLPVSLGDQASISCRSSLNIVHSDGNTYLEWYLQKPGQSPKLLIYKVSNRFSGVPDRFSGSGSGTDFTLKISGVEAEDLGVYYCFQGSHVPPTFGGGTKLEIK"
readout_name = "EC50"
value_unit = "nM"
assay_result = 1.3

[[record]]
binder = "048c (antibody, human IgG4, V domains shown, human IgG4 S228P / kappa chimeric antibody; also called chimeric antibody 048; not shown: human kappa light chain constant region (pcDNA3.4-hIgGk vector)) VH: EFQVQQSGPELVKPGASVKISCKASGYSFSDYNMNWLKQSTGKSLEWIGLVDPIYGTIRYNQKFKGKATLTVDQSSSTAYMQLNSLTSEDSAVYYCALITTSVRYFDYWGQGTTLTVSS VL: DVLMTQTPLSLPVSLGDQASISCRSSQNIVHTDGNTYLEWYLQKPGQSPKLLIYKVSNRFSGVPDRFSGSGSGTDFTLKISRVEAEDLGVYYCFQGSHVPPTFGGGTKLEIK"
readout_name = "EC50"
value_unit = "nM"
assay_result = 1.3

[[record]]
binder = "TSR-033 (antibody, V domains shown) VH: EVQLVQSGAEVKKPGATVKISCKASGFSIKDDYIHWVQQAPGKGLEWMGWIDAMNDDSQYSSKFQGRVTITVDTSTNTAYMKLSSLRSEDTAVYYCTYAFGGYWGQGTTVTVSS VL: DIVMTQTPLSLSVTPGQPASISCRSSQSLVHSDSNTYLHWYLQKPGQSPQLLIYLVSNRFSGVPDRFSGSGSGTDFTLKISRVEAEDVGVYFCGQSTHVPYAFGGGTKVEIK"
readout_name = "EC50"
value_unit = "nM"
assay_result = 2.6

